# Test system: B16 melanoma cells
# assay summary: Anti-melanogenesis assay (melanin content)
# Assay type: cell-based, mouse
# recorded conditions: Mus musculus, B16, read-out: IC50 (melanin synthesis)
reported metric: pIC50
Answers are plain numbers, as −log10 of the molar value.

CC1CCC2(C(=O)O)CCC3(C)C(=CCC4C5(C)C(CO)=CC(C)(C)C5CCC43C)C2C1(C)O (stereo not shown) [Compound 16, hyptadienic acid] has a reported pIC50 of 4.67

###

# assay summary: in vitro
# recorded conditions: mouse
reported metric: CC50 at 72 h (µM)
Answers are plain numbers, in µM.

OC[C@H]1O[C@@H](Oc2ccc(O)cc2)[C@H](O)[C@@H](O)[C@@H]1O [Arbutin, reference compound] has a reported CC50 at 72 h of 1820
